- ASSAY_PROTOCOL: The drug is tested on Bacteroides caccae strain: ATCC43185 for biotransformation. The drug concentrations were measured before and after a 12-h incubation by liquid-chromatography-coupled mass spectrometry (LC–MS)
- CONDITIONS: 2 µM
OUTCOME_MEASURE: Bacterial Biotransformation

CCC1(c2ccc(N)cc2)CCC(=O)NC1=O (centres undefined) [AMINOGLUTETHIMIDE]
Compound NOT metabolized
CCOC(=O)[C@H](CCc1ccccc1)N[C@@H](C)C(=O)N1CCC[C@H]1C(=O)O.O=C(O)/C=C\C(=O)O [ENALAPRIL MALEATE]
Compound NOT metabolized
CN(C(=O)CN(CCO)CC(=O)N(C)C(C)(C)Cc1ccccc1)C(C)(C)Cc1ccccc1
Compound NOT metabolized
